This collection of values is drawn from PubChem BioAssay AID1845213.

Test system: NCI-H841 complex tumor spheroid viability
ASSAY TEXT: Anticancer human tumor NCI-H841 cell line growth inhibition;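 also: spheroids exposed to compounds for 7 days before readout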;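 as to viability, T/C: 100% = DMSO vehicle control wells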
PROTOCOL CONDITIONS: second compound 31.6 µM; first compound 0.1 µM; stronger effect = lower value
QUANTITY NAME: viability, T/C (%)
The reply should contain only the number, in %.

According to the records, this compound Cc1cc(C)c(CNC(=O)c2cc(-c3ccc(CN4CCOCC4)cc3)cc3c2cnn3C2CCCC2)c(=O)[nH]1 + Cn1nnc2c(C(N)=O)ncn2c1=O displays viability, T/C of 101

According to the records, this compound [2H]c1nc(C)nc([2H])c1-c1cc(NC[C@@H](C)c2cccc3c(C(=O)NC)ccnc23)ncn1 + Cn1nnc2c(C(N)=O)ncn2c1=O displays viability, T/C of 97.7

According to the records, this compound CC1COCCN1c1cc(-c2ccnn2C)c2ccnc(-c3ccn[nH]3)c2n1 (stereo unspecified) + Cn1nnc2c(C(N)=O)ncn2c1=O displays viability, T/C of 12.1

According to the records, this compound CC(C)n1c(=O)n(C)c2cnc3cc(F)c(-c4ccc(OCCCN5CCCCC5)nc4)cc3c21 + Cn1nnc2c(C(N)=O)ncn2c1=O displays viability, T/C of 92.2

---
According to the records, this compound COc1cc(C)[nH]c(=O)c1CN1CCc2c(Cl)cc(C(OC)C3COC3)c(Cl)c2C1=O (stereo unspecified) + Cn1nnc2c(C(N)=O)ncn2c1=O displays viability, T/C of 70.3

According to the records, this compound COc1ccc([C@@H](O)c2cc(-c3ncnc4cc(N5CCOCC5)ccc34)c(F)cc2Cl)nn1 + Cn1nnc2c(C(N)=O)ncn2c1=O displays viability, T/C of 99.7

----------
Test system: NCI-H841 complex tumor spheroid viability
ASSAY TEXT: Anticancer human tumor NCI-H841 cell line growth inhibition;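 also: spheroids exposed to compounds for 7 days before readout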;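 as to viability, T/C: 100% = DMSO vehicle control wells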
PROTOCOL CONDITIONS: second compound 3.16 µM; first compound 0.3 µM; stronger effect = lower value
QUANTITY NAME: viability, T/C (%)
The reply should contain only the number, in %.

According to the records, this compound O=C(c1cc(Cc2n[nH]c(=O)c3ccccc23)ccc1F)N1CCN(C(=O)C2CC2)CC1 + Cn1nnc2c(C(N)=O)ncn2c1=O displays viability, T/C of 99.6

According to the records, this compound CNCc1ccc(-c2cc(-c3nc(-c4ccc(S(=O)(=O)C(C)C)cc4)cnc3N)on2)cc1 + Cn1nnc2c(C(N)=O)ncn2c1=O displays viability, T/C of 21.8

According to the records, this compound Cn1ncnc1[C@H]1c2n[nH]c(=O)c3cc(F)cc(c23)N[C@@H]1c1ccc(F)cc1 + Cn1nnc2c(C(N)=O)ncn2c1=O displays viability, T/C of 42.2

---
According to the records, this compound Cc1sc2c(c1C)C(c1ccc(Cl)cc1)=NC(CC(=O)Nc1ccc(O)cc1)c1nnc(C)n1-2 (centres undefined) + Cn1nnc2c(C(N)=O)ncn2c1=O displays viability, T/C of 59.1

----------
Entries annotated with measured viability, T/C
Tested on: NCI-H841 complex tumor spheroid viability
ASSAY TEXT: Anticancer human tumor NCI-H841 cell line growth inhibition;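 also: spheroids exposed to compounds for 7 days before readout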;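 as to viability, T/C: 100% = DMSO vehicle control wells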
PROTOCOL CONDITIONS: second compound 0.3 µM; first compound 0.316 µM; stronger effect = lower value
The reply should contain only the number, in %.

Use these answered entries as a reference point.
According to the records, this compound COc1ccc([C@@H](O)c2cc(-c3ncnc4cc(N5CCOCC5)ccc34)c(F)cc2Cl)nn1 + CC[C@@]1(O)C(=O)OCc2c1cc1n(c2=O)Cc2cc3c(CN(C)C)c(O)ccc3nc2-1 displays viability, T/C of 1.32

According to the records, this compound Cc1cc(C)c(CNC(=O)c2cc(-c3ccc(CN4CCOCC4)cc3)cc3c2cnn3C2CCCC2)c(=O)[nH]1 + CC[C@@]1(O)C(=O)OCc2c1cc1n(c2=O)Cc2cc3c(CN(C)C)c(O)ccc3nc2-1 displays viability, T/C of 1.88

According to the records, this compound CC1COCCN1c1cc(-c2ccnn2C)c2ccnc(-c3ccn[nH]3)c2n1 (stereo unspecified) + CC[C@@]1(O)C(=O)OCc2c1cc1n(c2=O)Cc2cc3c(CN(C)C)c(O)ccc3nc2-1 displays viability, T/C of 0.4

According to the records, this compound COc1cc(C)[nH]c(=O)c1CN1CCc2c(Cl)cc(C(OC)C3COC3)c(Cl)c2C1=O (stereo unspecified) + CC[C@@]1(O)C(=O)OCc2c1cc1n(c2=O)Cc2cc3c(CN(C)C)c(O)ccc3nc2-1 displays viability, T/C of 1.29

According to the records, this compound [2H]c1nc(C)nc([2H])c1-c1cc(NC[C@@H](C)c2cccc3c(C(=O)NC)ccnc23)ncn1 + CC[C@@]1(O)C(=O)OCc2c1cc1n(c2=O)Cc2cc3c(CN(C)C)c(O)ccc3nc2-1 displays viability, T/C of 1.59

---
According to the records, this compound CC(C)n1c(=O)n(C)c2cnc3cc(F)c(-c4ccc(OCCCN5CCCCC5)nc4)cc3c21 + CC[C@@]1(O)C(=O)OCc2c1cc1n(c2=O)Cc2cc3c(CN(C)C)c(O)ccc3nc2-1 displays viability, T/C of 1.55

----------
Test system: NCI-H841 complex tumor spheroid viability
ASSAY TEXT: Anticancer human tumor NCI-H841 cell line growth inhibition;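 also: spheroids exposed to compounds for 7 days before readout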;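 as to viability, T/C: 100% = DMSO vehicle control wells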
PROTOCOL CONDITIONS: second compound 0.0949 µM; first compound 3 µM; stronger effect = lower value
QUANTITY NAME: viability, T/C (%)
The reply should contain only the number, in %.

Use these answered entries as a reference point.
According to the records, this molecule O=C(c1cc(Cc2n[nH]c(=O)c3ccccc23)ccc1F)N1CCN(C(=O)C2CC2)CC1 + CC[C@@]1(O)C(=O)OCc2c1cc1n(c2=O)Cc2cc3c(CN(C)C)c(O)ccc3nc2-1 displays viability, T/C of 1.38

According to the records, this molecule CNCc1ccc(-c2cc(-c3nc(-c4ccc(S(=O)(=O)C(C)C)cc4)cnc3N)on2)cc1 + CC[C@@]1(O)C(=O)OCc2c1cc1n(c2=O)Cc2cc3c(CN(C)C)c(O)ccc3nc2-1 displays viability, T/C of 0.15

According to the records, this molecule Cc1sc2c(c1C)C(c1ccc(Cl)cc1)=NC(CC(=O)Nc1ccc(O)cc1)c1nnc(C)n1-2 (centres undefined) + CC[C@@]1(O)C(=O)OCc2c1cc1n(c2=O)Cc2cc3c(CN(C)C)c(O)ccc3nc2-1 displays viability, T/C of 5.05

# input for lookup
According to the records, this molecule Cn1ncnc1[C@H]1c2n[nH]c(=O)c3cc(F)cc(c23)N[C@@H]1c1ccc(F)cc1 + CC[C@@]1(O)C(=O)OCc2c1cc1n(c2=O)Cc2cc3c(CN(C)C)c(O)ccc3nc2-1 displays viability, T/C of 1.31

----------
Entries annotated with measured IC50
System: NCI-H841 complex tumor spheroid viability
ASSAY TEXT: Anticancer human tumor NCI-H841 cell line growth inhibition;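 also: spheroids exposed to compounds for 7 days before readout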
PROTOCOL CONDITIONS: curve of first compound; second compound 0.00949 µM

Use these answered entries as a reference point.
According to the records, this molecule CNCc1ccc(-c2cc(-c3nc(-c4ccc(S(=O)(=O)C(C)C)cc4)cnc3N)on2)cc1 + CC[C@@]1(O)C(=O)OCc2c1cc1n(c2=O)Cc2cc3c(CN(C)C)c(O)ccc3nc2-1 displays IC50 of < 9.49 nM

According to the records, this molecule Cc1cc(C)c(CNC(=O)c2cc(-c3ccc(CN4CCOCC4)cc3)cc3c2cnn3C2CCCC2)c(=O)[nH]1 + CC[C@@]1(O)C(=O)OCc2c1cc1n(c2=O)Cc2cc3c(CN(C)C)c(O)ccc3nc2-1 displays IC50 of 713 nM

According to the records, this molecule [2H]c1nc(C)nc([2H])c1-c1cc(NC[C@@H](C)c2cccc3c(C(=O)NC)ccnc23)ncn1 + CC[C@@]1(O)C(=O)OCc2c1cc1n(c2=O)Cc2cc3c(CN(C)C)c(O)ccc3nc2-1 displays IC50 of > 10000 nM

According to the records, this molecule O=C(c1cc(Cc2n[nH]c(=O)c3ccccc23)ccc1F)N1CCN(C(=O)C2CC2)CC1 + CC[C@@]1(O)C(=O)OCc2c1cc1n(c2=O)Cc2cc3c(CN(C)C)c(O)ccc3nc2-1 displays IC50 of < 94.9 nM

# input for lookup
According to the records, this molecule CC(C)n1c(=O)n(C)c2cnc3cc(F)c(-c4ccc(OCCCN5CCCCC5)nc4)cc3c21 + CC[C@@]1(O)C(=O)OCc2c1cc1n(c2=O)Cc2cc3c(CN(C)C)c(O)ccc3nc2-1 displays IC50 of < 31.6 nM

----------
Entries annotated with measured viability, T/C
System: NCI-H841 complex tumor spheroid viability
ASSAY TEXT: Anticancer human tumor NCI-H841 cell line growth inhibition;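 also: spheroids exposed to compounds for 7 days before readout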;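 as to viability, T/C: 100% = DMSO vehicle control wells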
PROTOCOL CONDITIONS: second compound 0.03 µM; first compound 0.0316 µM; stronger effect = lower value
The reply should contain only the number, in %.

Use these answered entries as a reference point.
According to the records, this compound CC(C)n1c(=O)n(C)c2cnc3cc(F)c(-c4ccc(OCCCN5CCCCC5)nc4)cc3c21 + CC[C@@]1(O)C(=O)OCc2c1cc1n(c2=O)Cc2cc3c(CN(C)C)c(O)ccc3nc2-1 displays viability, T/C of 1.24

According to the records, this compound CC1COCCN1c1cc(-c2ccnn2C)c2ccnc(-c3ccn[nH]3)c2n1 (stereo not drawn) + CC[C@@]1(O)C(=O)OCc2c1cc1n(c2=O)Cc2cc3c(CN(C)C)c(O)ccc3nc2-1 displays viability, T/C of 0.77

---
According to the records, this compound Cc1cc(C)c(CNC(=O)c2cc(-c3ccc(CN4CCOCC4)cc3)cc3c2cnn3C2CCCC2)c(=O)[nH]1 + CC[C@@]1(O)C(=O)OCc2c1cc1n(c2=O)Cc2cc3c(CN(C)C)c(O)ccc3nc2-1 displays viability, T/C of 2.88
